Tested on: NIH3T3
assayText: Cytotoxic Profiling of Annotated Libraries Using Quantitative High-Throughput Screening (AID 1296008); also: nearly all actives have a fitted effect of over 60% in size
conditions: Five cell lines viability, CellTiter-Glo ATP luminescence, 48-72 h
Inconclusive results are not listed. Active and inactive are the calls of the source. Calls follow the shape of the dose curve; as a rule, active = well fitted inhibition curve with a large enough effect; inconclusive = small, poorly fitted or top-dose-only effect; inactive = flat fitted curve, though single readings scatter.
resultType: outcome

[[record]]
molecule = "CC[C@]12CCCN3CCc4c(n(c5ccccc45)[C@@](O)(C(=O)OC)C1)[C@@H]32"
resulttype = "outcome"
measuredresult = "inactive"

[[record]]
molecule = "CCCCCC(N)=O"
resulttype = "outcome"
measuredresult = "inactive"

[[record]]
molecule = "CC(=O)Oc1cccc(O)c1"
resulttype = "outcome"
measuredresult = "inactive"

[[record]]
molecule = "Nc1ncnc(Nc2ccccc2)n1"
resulttype = "outcome"
measuredresult = "inactive"

[[record]]
molecule = "CN(C(=O)c1c(O)c2ccccc2n(C)c1=O)c1ccccc1"
resulttype = "outcome"
measuredresult = "inactive"

[[record]]
molecule = "NC(=O)c1ccc([N+](=O)[O-])cc1Cl"
resulttype = "outcome"
measuredresult = "inactive"

[[record]]
molecule = "Cc1c(NC(=O)c2cccnc2)c(=O)n(-c2ccccc2)n1C"
resulttype = "outcome"
measuredresult = "inactive"

[[record]]
molecule = "O=C(O)CNC(=O)c1ccccc1I"
resulttype = "outcome"
measuredresult = "inactive"

[[record]]
molecule = "NC(=O)N[C@@H](CCC(=O)O)C(=O)O"
resulttype = "outcome"
measuredresult = "inactive"

[[record]]
molecule = "CC(=O)OCC(COC(C)=O)OC(C)=O"
resulttype = "outcome"
measuredresult = "inactive"

[[record]]
molecule = "CC1(C)S[C@@H]2[C@H](N=CN3CCCCCC3)C(=O)N2[C@H]1C(=O)O"
resulttype = "outcome"
measuredresult = "inactive"

[[record]]
molecule = "O=c1[nH]c(=O)n([C@H]2C[C@H](O)[C@@H](CO)O2)cc1I"
resulttype = "outcome"
measuredresult = "inactive"

[[record]]
molecule = "CC(C)c1cc2c(cc1S(=O)(=O)O)[C@@]1(C)CCC[C@@](C)(C(=O)O)[C@@H]1CC2"
resulttype = "outcome"
measuredresult = "inactive"

[[record]]
molecule = "O=C(O)C(S)C(S)C(=O)O (configuration not stated)"
resulttype = "outcome"
measuredresult = "inactive"

[[record]]
molecule = "O=C(O)c1ccc[n+]([O-])c1"
resulttype = "outcome"
measuredresult = "inactive"

[[record]]
molecule = "CC(=O)N[C@H]1[C@H]([C@H](O)[C@H](O)CO)OC(C(=O)O)=C[C@@H]1N=C(N)N"
resulttype = "outcome"
measuredresult = "inactive"

[[record]]
molecule = "Cc1c(I)c(=O)n(-c2ccccc2)n1C"
resulttype = "outcome"
measuredresult = "inactive"

[[record]]
molecule = "O=C(O)c1cc(=O)c2ccccc2o1"
resulttype = "outcome"
measuredresult = "inactive"

[[record]]
molecule = "C[n+]1ccccc1/C=N/O"
resulttype = "outcome"
measuredresult = "inactive"

[[record]]
molecule = "O=C1c2ccccc2S(=O)(=O)N1CCCCN1CCN(c2ncccn2)CC1"
resulttype = "outcome"
measuredresult = "inactive"

[[record]]
molecule = "CCCCC1(COC(=O)CCC(=O)O)C(=O)N(c2ccccc2)N(c2ccccc2)C1=O"
resulttype = "outcome"
measuredresult = "inactive"

[[record]]
molecule = "OCc1ccc(Cl)cc1Cl"
resulttype = "outcome"
measuredresult = "inactive"

